Assign cytotoxicity to each entry below.
test: cytotoxicity in HPDE-C7 cells, cell-based, fluorescence, HTS (AID 430); conditions: HPDE-C7 pancreatic duct cells viability, at 10 µM, hits give high values;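 note: cells exposed to compound for 48 hours before viability readout; 0% = vehicle and 100% = reference cytotoxic drug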
The campaign covered roughly 63,000 compounds. About 1,100 (1.7%) were called active. What follows is part of a selection rich in actives, with near analogues and random picks from the rest. Potency and affinity values are given separately.
Write the number in % without appending the unit.

Briefly, cytotoxicity measured for Cc1ccc(C(C(=O)NC2CCCCC2)N(Cc2cccnc2)C(=O)C2COc3ccccc3O2)o1 (stereo not given) : -11.7

Briefly, cytotoxicity measured for `CC(=O)c1sc(Nc2nc3ccc(F)cc3s2)nc1C` : 58.8

Briefly, cytotoxicity measured for `c1ccc(-n2c(Sc3cnccn3)nnc2-c2cccs2)cc1` : -0.3

Briefly, cytotoxicity measured for Cc1cc(C)c2[nH]c(=O)c(CN(Cc3ccco3)C(=O)C3CCCO3)cc2c1 (stereo not given) : -9.6

Briefly, cytotoxicity measured for `COc1ccccc1NC(=O)N(Cc1ccco1)Cc1cc2cc(C)cc(C)c2[nH]c1=O` : 59.5

Briefly, cytotoxicity measured for `CCOC(=O)N1CCN(c2c(-c3ccc(C(C)C)cc3)c(=O)c2=O)CC1` : 1.3

Briefly, cytotoxicity measured for `COc1ccccc1NC(=O)N(Cc1ccco1)Cc1cc2ccc(C)c(C)c2[nH]c1=O` : 72.8

Briefly, cytotoxicity measured for `Cc1c(-c2nc(N)nc(Nc3ccccc3F)n2)oc2ccccc12` : 15

Briefly, cytotoxicity measured for `COc1ccc2nc(Nc3nc(C)c(C(C)=O)s3)sc2c1` : 18.2

Briefly, cytotoxicity measured for `O=C(O)C1CCN(C(=O)c2ccccc2C(=O)N2CCC(C(=O)O)CC2)CC1` : -9.9
